- assay.target: Bromodomain-containing protein 4 (Homo sapiens)
- assay.notes: Inhibition of BRD4 BD1-BD2 (unknown origin) using tetraacetylated histone peptide as substrate after 2 hrs by alphascreen assay
pIC50: −log10 of the molar value.
measured.property: pIC50

Reference set, count: 6
>  <molecule>
Cc1nnc2c(Nc3cccc(NC(=O)OC(C)(C)C)c3)nc3ccccc3n12

>  <pIC50>
6.92

$$$$
>  <molecule>
Cc1nnc2c(Nc3cccc(CNC(=O)C(C)C)c3)nc3ccccc3n12

>  <pIC50>
7.17

$$$$
>  <molecule>
CCC(=O)NCc1cccc(Nc2nc3ccccc3n3c(C)nnc23)c1

>  <pIC50>
6.70

$$$$
>  <molecule>
Cc1nnc2c(Nc3cccc(CNC(=O)OC(C)(C)C)c3)nccn12

>  <pIC50>
5.82

$$$$
>  <molecule>
Cc1nnc2c(Nc3ccc(CNC(=O)OC(C)(C)C)cc3)nc3ccccc3n12

>  <pIC50>
5.57

$$$$
>  <molecule>
Cc1nnc2c(Nc3cccc(CNC(=O)c4ccccc4)c3)nc3ccccc3n12

>  <pIC50>
6.19

$$$$

(A) CC(=O)NCc1cccc(Nc2nc3ccccc3n3c(C)nnc23)c1
(B) CCOC(=O)NCc1cccc(Nc2nc3ccccc3n3c(C)nnc23)c1
(C) Cc1nnc2c(Nc3cccc(CNC(=O)C(C)(C)C)c3)nc3ccccc3n12
Prompt: Parameters: sort_field (pIC50), sort_dir (desc). Sort and list the labels as requested.
Completion: C, B, A
(C: 7.01, B: 6.80, A: 6.28)

----------
- assay.notes: Oral bioavailability in rat at 5 mg/kg
- Format: ADME, organism-based
- condition.summary: in vivo
measured.property: bioavailability (%)
Give the value, in units of %, as a plain number.

For Cc1nnc2c(Nc3cccc(CNC(=O)OC(C)(C)C)c3)nc3ccccc3n12 the molecule record lists bioavailability as 20.9

----------
- Test system: Rattus norvegicus
- assay.notes: Cmax in rat at 5 mg/kg, po
- Type: ADME, organism-based
- Parameters: dose 5 mg/kg, route oral
- condition.summary: in vivo
measured.property: Cmax (ng/mL)
Give the value, in units of ng/mL, as a plain number.

For Cc1nnc2c(Nc3cccc(CNC(=O)OC(C)(C)C)c3)nc3ccccc3n12 the molecule record lists Cmax as 340

----------
- assay.notes: Stability in mouse liver microsomes assessed as parent compound remaining after 30 mins
- Type: ADME, microsome
- condition.summary: read-out: Stability
measured.property: remaining at 0.5 h (%)

(1) Cc1nnc2c(Nc3cccc(CNC(=O)OC(C)(C)C)c3)nc3ccccc3n12
(2) Cc1nnc2c(Nc3cccc(CNC(=O)C(C)C)c3)nc3ccccc3n12
Prompt: Choose between 1 and 2 : whose measured remaining at 0.5 h value is numerically larger? Please reply using the label of the selected record.
Completion: 1

----------
- assay.notes: AUCt in rat at 2 mg/kg, iv
- Assay type: ADME, organism-based
- condition.summary: in vivo
measured.property: AUC(0-t) (ng·h/mL)
Give the value, in units of ng·h/mL, as a plain number.

For Cc1nnc2c(Nc3cccc(CNC(=O)OC(C)(C)C)c3)nc3ccccc3n12 the molecule record lists AUC(0-t) as 4020

----------
- assay.notes: Stability in rat liver microsomes assessed as parent compound remaining after 30 mins
- Type: ADME, microsome
- condition.summary: read-out: Stability
measured.property: remaining at 0.5 h (%)

(a) Cc1nnc2c(Nc3cccc(CNC(=O)C(C)C)c3)nc3ccccc3n12
(b) Cc1nnc2c(Nc3cccc(CNC(=O)OC(C)(C)C)c3)nc3ccccc3n12
Prompt: Choose between a and b : whose measured remaining at 0.5 h value is numerically larger? Please reply using the label of the selected record.
Completion: a
(a: 5%, b: 0.19%)

These data points were gathered from ChEMBL document CHEMBL4043246.
